Entries annotated with measured CC50 at 3 days
assay: CC50 assay (CellTiter-Glo) in Huh-7 HCV replicon cells; assay type: cell-based, human; conditions: human, 3 days incubation, CellTiter-Glo readout

Solved cases (5 shown):
molecule	CC50 at 3 days
CCOc1nc(NCc2ccc(C(=O)N(C)C)cc2)nc2ccc(-c3ccc(F)cc3)nc12 [Example 262]	> 25 µM
NS(=O)(=O)c1ccc(CNc2nc(NCC(F)(F)F)c3nc(-c4ccc(=O)[nH]c4)ccc3n2)cc1 [Example 287]	> 25 µM
CCOc1nc(NCCS(N)(=O)=O)nc2ccc(-c3ccc(F)cc3)nc12 [Example 265]	5 to 25 µM
CCCc1nc(NCc2ccc(F)cc2)nc2ccc(-c3ccc(NC(=O)C(C)(C)N)cc3)nc12 [Example 295]	> 25 µM
NC(=O)c1ccc(CNc2nc(NCC(F)(F)F)c3nc(-c4ccc(F)cc4)ccc3n2)cc1 [Example 261]	< 5 µM

State the recorded CC50 at 3 days for this entry: Fc1ccc(-c2ccc3nc(NCc4ncco4)nc(NCC(F)(F)F)c3n2)cc1 [Example 253]
< 5 µM

Origin of measurements: patent US8729089B2
